system: strain of German cockroaches that is resistant to multiple insecticides; experiment: Topical application test on male adult German cockroach, multiple-insecticide-resistant strain; assay type: in vivo; details: calculated by formula (2) from the LD50 values of the resistant and susceptible strains
property: Resistance ratio

Problem: Field request: Resistance ratio | item: CC1(C)C(C=C(Cl)Cl)C1C(=O)OCc1cccc(Oc2ccccc2)c1 (centres unmarked) [Permethrin, permethrin]
Result: >180

Problem: Report Resistance ratio for COC(=O)N(C(=O)N1CO[C@@]2(C(=O)OC)Cc3cc(Cl)ccc3C2=N1)c1ccc(OC(F)(F)F)cc1 [Indoxacarb, indoxacarb] please.
Result: >200

Problem: // Resistance ratio lookup, key: CN(C(=O)c1ccccc1)c1cccc(C(=O)Nc2c(Br)cc(C(F)(C(F)(F)F)C(F)(F)F)cc2C(F)(F)F)c1F [Broflanilide, broflanilide]
Result: 2.3

Problem: Which measured Resistance ratio value corresponds to CC1(C)[C@H](C(=O)O[C@H](C#N)c2cccc(Oc3ccccc3)c2)[C@@H]1C=C(Br)Br [Deltamethrin, deltamethrin] ?
Result: 43

Problem: Request the reported Resistance ratio associated with N#Cc1nn(-c2c(Cl)cc(C(F)(F)F)cc2Cl)c(N)c1[S+]([O-])C(F)(F)F (centres unmarked) [Fipronil, fipronil]
Result: 41
